Please respond with reported -log10 GI50 for every item in the list.
Test system: LY2
Test Description: -log10 GI50 (growth inhibition 50%) (-log10(M)); higher = more potent growth inhibition

Compound	-log10 GI50
C#Cc1cccc(Nc2ncnc3cc(OCCOC)c(OCCOC)cc23)c1	< 4.18

State recorded -log10 GI50 for all listed compounds.
1. COc1cccc(-c2cc(=O)c3ccccc3o2)c1N
2. COc1cc([C@@H]2c3cc4c(cc3[C@@H](O[C@@H]3O[C@@H]5CO[C@@H](C)O[C@H]5[C@H](O)[C@H]3O)[C@H]3COC(=O)[C@H]23)OCO4)cc(OC)c1O [Etoposide]
3. CSCC[C@H](NC(=O)[C@H](Cc1ccccc1)NC[C@@H](NC[C@@H](N)CS)C(C)C)C(=O)O

Resp:
1: < 4.3; 2: < 3.48; 3: < 4.48

Req: Value lookup for -log10 GI50; key = `CC(=O)Nc1cccc(-n2c(=O)n(C3CC3)c(=O)c3c(Nc4ccc(I)cc4F)n(C)c(=O)c(C)c32)c1`
Resp: < 4.78

###

Test system: HCC1954
Test Description: -log10 GI50 (growth inhibition 50%) (-log10(M)); higher = more potent growth inhibition
Test Readout: -log10 GI50

// below: answered molecules
Compound String	Experimental System	-log10 GI50
COc1cc2c(Nc3ccc(NC(=O)c4ccccc4)cc3)ncnc2cc1OCCCN1CCOCC1	HCC1954	< 4.48
CCN(CC)C(=S)SSC(=S)N(CC)CC	HCC1954	< 4.18

Turning now to a further molecule:
Req: Value lookup for -log10 GI50; key = `Nc1[nH]nc2nnc(-c3c(-c4ccccc4)nn4ccccc34)cc12`
Resp: < 4.48

###

Tested on: SUM159PT
Test Description: -log10 GI50 (growth inhibition 50%) (-log10(M)); higher = more potent growth inhibition
Respond with Condition met for -log10 GI50 values of 6 and above, Condition not met for values below.

Recorded results for 10 molecules are shown here.
Molecule	Experimental System	Label
Nc1[nH]nc2nnc(-c3c(-c4ccccc4)nn4ccccc34)cc12	SUM159PT	Condition not met
Nc1nc2[nH]cc(CCc3ccc(C(=O)N[C@@H](CCC(=O)O)C(=O)O)cc3)c2c(=O)[nH]1	SUM159PT	Condition not met
CNC(=O)c1c(F)cccc1Nc1nc(Nc2cc3c(cc2OC)CCN3C(=O)CN(C)C)nc2[nH]ccc12	SUM159PT	Condition not met
CCn1cc(-c2ccnc3[nH]c(-c4cccc(CN(C)C)c4)cc23)c(-c2ccc(NC(=O)N(C)C)cc2)n1	SUM159PT	Condition not met
C[C@@H](Oc1cc(-n2cnc3ccc(CN4CCN(C)CC4)cc32)sc1C(N)=O)c1ccccc1C(F)(F)F	SUM159PT	Condition met
O=C(O)C1(C(=O)O)CCC1.[NH2-].[NH2-].[Pt+2]	SUM159PT	Condition not met
CCCCCN(C)CCC(O)(P(=O)(O)O)P(=O)(O)O [Ibandronate sodium]	SUM159PT	Condition not met
CC(C)[C@H](CO)Nc1nc(Nc2cccc(Cl)c2)c2ncn(C(C)C)c2n1	SUM159PT	Condition not met
Cn1ncc(Cl)c1-c1cc(C(=O)N[C@H](CN)Cc2ccc(F)c(F)c2)oc1Cl	SUM159PT	Condition met
O=C(/C=C/C#Cc1cccc(NS(=O)(=O)c2ccccc2)c1)NO	SUM159PT	Condition met

Req: Item `CCN(CC)C(=S)SSC(=S)N(CC)CC` with -log10 GI50 of 6 or above?
Resp: Condition met

Req: Record: `CCNCCCNC/C=C\CNCCCNCC`
Resp: Condition not met

Req: Record: `Cn1cnc2c(F)c(Nc3ccc(Br)cc3Cl)c(C(=O)NOCCO)cc21`
Resp: Condition met

Req: Record: `Cc1cncc2cccc(S(=O)(=O)N3CCCN(C(=O)CN)C[C@@H]3C)c12`
Resp: Condition not met

###

System: HCC1428
Test Description: -log10 GI50 (growth inhibition 50%) (-log10(M)); higher = more potent growth inhibition
Please respond with reported -log10 GI50 for every item in the list.

// below: answered molecules
Compound String	Test Readout	Reported
Nc1nc2[nH]cc(CCc3ccc(C(=O)N[C@@H](CCC(=O)O)C(=O)O)cc3)c2c(=O)[nH]1	-log10 GI50	< 2.53
CSCC[C@H](NC(=O)[C@H](Cc1ccccc1)NC[C@@H](NC[C@@H](N)CS)C(C)C)C(=O)O	-log10 GI50	< 4.48
CS(=O)(=O)CCNCc1ccc(-c2ccc3ncnc(Nc4ccc(OCc5cccc(F)c5)c(Cl)c4)c3c2)o1	-log10 GI50	< 4.78

Turning now to a further molecule:
Req: Value lookup for -log10 GI50; key = `COc1cccc(-c2cc(=O)c3ccccc3o2)c1N`
Resp: < 4

###

Test system: MDAMB134VI
Test Description: -log10 GI50 (growth inhibition 50%) (-log10(M)); higher = more potent growth inhibition
Test Readout: -log10 GI50

// below: answered compounds
Compound	Reported
O=S(=O)(CC1CS1)c1ccc(Oc2ccccc2)cc1 (centres undefined)	< 4
CN(Cc1cnc2nc(N)nc(N)c2n1)c1ccc(C(=O)N[C@@H](CCC(=O)O)C(=O)O)cc1 [Methotrexate]	< 3.48
CSCC[C@H](NC(=O)[C@H](Cc1ccccc1)NC[C@@H](NC[C@@H](N)CS)C(C)C)C(=O)O	< 4.48

Turning now to a further compound:
Req: Find -log10 GI50 (MDAMB134VI) for the entry `O=C(O)c1ccc(-c2c[nH]c3ncc(-c4ccccc4)cc23)cc1C1CCCC1`
Resp: < 4.18

###

Test system: SKBR3
Test Description: -log10 GI50 (growth inhibition 50%) (-log10(M)); higher = more potent growth inhibition
Please respond with reported -log10 GI50 for every item in the list.
One number for each entry.

// below: answered molecules
Molecule	Test Readout	Reported
NS(=O)(=O)c1ccc(Nc2nc(OCC3CCCCC3)c3[nH]cnc3n2)cc1 [NU6102]	-log10 GI50	4.51
O=C1NC(=O)/C(=C/c2ccc(-c3ccc(F)cc3O)o2)S1	-log10 GI50	4.4
Cc1ccc(NC(=O)c2ccc(CN3CCN(C)CC3)cc2)cc1Nc1nccc(-c2cccnc2)n1 [Imatinib]	-log10 GI50	4.63

Turning now to a further molecule:
Req: Value lookup for -log10 GI50; key = `CCNCCCCNCCCCNCCCCNCCCCNC/C=C/CNCCCCNCCCCNCCCCNCCCCNCC`
Resp: 5.31

###

Tested on: HCC1954
Test Description: -log10 GI50 (growth inhibition 50%) (-log10(M)); higher = more potent growth inhibition
Test Readout: -log10 GI50
One number for each entry.

// below: answered molecules
Molecule	-log10 GI50
COC(=O)Nc1nc2cc(C(=O)c3ccccc3)ccc2[nH]1	6.82
CC(/C=C/C(=O)NO)=C\[C@@H](C)C(=O)c1ccc(N(C)C)cc1	4.96
CO[C@H]1C[C@@H]2CC[C@@H](C)[C@@](O)(O2)C(=O)C(=O)N2CCCC[C@H]2C(=O)O[C@H]([C@H](C)C[C@@H]2CC[C@@H](OC(=O)C(C)(CO)CO)[C@H](OC)C2)CC(=O)[C@H](C)/C=C(\C)[C@@H](O)[C@@H](OC)C(=O)[C@H](C)C[C@H](C)/C=C/C=C/C=C/1C	6.66

State recorded -log10 GI50 for all listed molecules.
1. COc1ccc(C2=N[C@@H](c3ccc(Cl)cc3)[C@@H](c3ccc(Cl)cc3)N2C(=O)N2CCNC(=O)C2)c(OC(C)C)c1
2. Cc1ccc(NC(=O)c2ccc(CN3CCN(C)CC3)cc2)cc1Nc1nccc(-c2cccnc2)n1

Resp:
4.76
5.04

State recorded -log10 GI50 for all listed molecules.
1. O=c1[nH]c(=O)n([C@H]2C[C@H](O)[C@@H](CO)O2)cc1F
2. CC/C(=C(\c1ccccc1)c1ccc(OCCN(C)C)cc1)c1ccccc1
3. COc1cccc2c1C(=O)c1c(O)c3c(c(O)c1C2=O)C[C@@](O)(C(=O)CO)C[C@@H]3O[C@H]1C[C@H](N)[C@@H](O)[C@H](C)O1 [Epirubicin]
4. Cn1cnc2c(F)c(Nc3ccc(Br)cc3Cl)c(C(=O)NOCCO)cc21
5. O=C(O)C(=O)O.[NH-][C@@H]1CCCC[C@H]1[NH-].[Pt+2]
6. Cc1ccc(C(=O)N(CCCN)[C@@H](c2nc3cc(Cl)ccc3c(=O)n2Cc2ccccc2)C(C)C)cc1

Resp:
[3.99, 4.54, 6.7, 5.84, 5.95, 7.52]

State recorded -log10 GI50 for all listed molecules.
1. CNC(=O)c1c(F)cccc1Nc1nc(Nc2cc3c(cc2OC)CCN3C(=O)CN(C)C)nc2[nH]ccc12
2. COc1cc([C@@H]2c3cc4c(cc3[C@@H](O[C@@H]3O[C@@H]5CO[C@@H](C)O[C@H]5[C@H](O)[C@H]3O)[C@H]3COC(=O)[C@H]23)OCO4)cc(OC)c1O [Etoposide]
3. CCCC(CCC)C(=O)O

Resp:
1: 5.06; 2: 6.01; 3: 2.52

The measurements presented in this section are drawn from the supplement of paper PMC3937590.
